B1: tRNA (parent)
chain: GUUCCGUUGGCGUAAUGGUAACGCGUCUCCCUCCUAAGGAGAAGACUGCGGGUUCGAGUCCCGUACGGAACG

# Variants of: B1
# Test Summary: yeast fitness relative to wild type (ratio to wild type); higher = fitter; tRNA-Arg(CCU), competitive growth, 37 C, YPD
Variants at the floor of the assay were thinned out.
Recorded Endpoint: yeast fitness
Give bare numbers.

{"columns": ["Variant Descriptor", "Recorded Endpoint", "Readout Number"],
 "data": [
  ["G18A A20U C31U", "yeast fitness", 0.545],
  ["C5G G10C U13G A37C G56A A65U", "yeast fitness", 0.64],
  ["G25A G67A", "yeast fitness", 0.875],
  ["C5A U19C C22G C24A G39C A45C", "yeast fitness", 0.596],
  ["U3A U54A G56C", "yeast fitness", 0.767]
]}

Look at each variant and report its yeast fitness.
1. A36C A42U A43G G63C
2. U2G G56A
3. C62U C66G
4. A15G C49G
5. U2C U7A C22A A36U A45U C60U C62U C66U
6. A21C A45C C62G A65C
7. C34G G58C A69C

1: 0.509; 2: 0.896; 3: 0.731; 4: 0.782; 5: 0.541; 6: 0.574; 7: 0.576

Ref: the RNAGym collection of RNA variant scans (doi:10.1126/science.aae0568)
